Each recorded value in this set is attributed to paper PMC5785958.

- Compound: "CCOC(=O)c1cnc(SCC(=O)N2c3ccccc3Sc3ccc(OC)cc32)nc1N [Compound 27]"
  melting point: "104 to 106 °C"
- Compound: "Nn1c(SCC(=O)N2c3ccccc3Sc3ccc(Cl)cc32)nnc1-c1ccncc1 [Compound 34]"
  melting point: "225 to 227 °C"
- Compound: "N#Cc1cnc(SCCCN2c3ccccc3Sc3ccccc32)nc1N [Compound 45]"
  melting point: "117 to 119 °C"
- Compound: "N#Cc1cnc(SCC(=O)N2c3ccccc3Sc3ccc(Cl)cc32)nc1N [Compound 22]"
  melting point: "222 to 224 °C"
- Compound: "COc1ccc2c(c1)N(C(=O)CSc1nnc(-c3ccncc3)n1N)c1ccccc1S2 [Compound 35]"
  melting point: "188 to 190 °C"
- Compound: "COc1ccc2c(c1)N(C(=O)CSc1ncc(C#N)c(N)n1)c1ccccc1S2 [Compound 23]"
  melting point: "215 to 217 °C"
- Compound: "N#Cc1cnc(SCC(=O)N2c3ccccc3Sc3ccc(C(F)(F)F)cc32)nc1N [Compound 5]"
  melting point: "218 to 220 °C"
- Compound: "CCOC(=O)c1cnc(SCCCN2c3ccccc3Sc3ccccc32)nc1N [Compound 49]"
  melting point: "146 to 148 °C"
- Compound: "CCOC(=O)c1cnc(SCC(=O)N2c3ccccc3Sc3ccc(C(F)(F)F)cc32)nc1N [Compound 25]"
  melting point: "148 to 151 °C"
- Compound: "COc1ccc2c(c1)N(C(=O)CSc1nnc(-c3ccncc3)o1)c1ccccc1S2 [Compound 31]"
  melting point: "166 to 168 °C"
- Compound: "O=C(CSc1nnc(-c2ccncc2)o1)N1c2ccccc2Sc2ccc(C(F)(F)F)cc21 [Compound 29]"
  melting point: "156 to 158 °C"
- Compound: "Nn1c(SCC(=O)N2c3ccccc3Sc3ccc(C(F)(F)F)cc32)nnc1-c1ccncc1 [Compound 33]"
  melting point: "202 to 204 °C"
- Compound: "CCOC(=O)c1cnc(SCCCN2c3ccccc3Sc3ccc(OC)cc32)nc1N [Compound 48]"
  melting point: "106 to 108 °C"
- Compound: "Nn1c(SCC(=O)N2c3ccccc3Sc3ccccc32)nnc1-c1ccncc1 [Compound 36]"
  melting point: "232 to 234 °C"
- Compound: "N#Cc1cnc(SCC(=O)N2c3ccccc3Sc3ccccc32)nc1N [Compound 24]"
  melting point: "241 to 243 °C"
- Compound: "CCOC(=O)c1cnc(SCC(=O)N2c3ccccc3Sc3ccccc32)nc1N [Compound 28]"
  melting point: "202 to 204 °C"
- Compound: "COc1ccc2c(c1)N(CCCSc1ncc(C#N)c(N)n1)c1ccccc1S2 [Compound 44]"
  melting point: "158 to 160 °C"
- Compound: "O=C(CSc1nnc(-c2ccncc2)o1)N1c2ccccc2Sc2ccccc21 [Compound 32]"
  melting point: "212 to 214 °C"

---

- Protocol summary: PAMPA-BBB in vitro permeability assay
- Format: in vitro ADME, porcine
- Particulars: pig; PAMPA-BBB, porcine brain lipid, PBS/ethanol (70:30), 120 min, 25 °C; mean ± SEM of three experiments; read-out: Pe

- Item smiles: "N#Cc1cnc(SCCCN2c3ccccc3Sc3ccc(Cl)cc32)nc1N"
  Papp at 120 min, 100 µg/ml / ×10⁻⁶ cm/s: 3.47
- Item smiles: "COc1ccc2c(c1)N(CCCSc1ncc(C#N)c(N)n1)c1ccccc1S2"
  Papp at 120 min, 100 µg/ml / ×10⁻⁶ cm/s: 3.58
- Item smiles: "CCOC(=O)c1cnc(SCC(=O)N2c3ccccc3Sc3ccc(C(F)(F)F)cc32)nc1N"
  Papp at 120 min, 100 µg/ml / ×10⁻⁶ cm/s: 2.72
- Item smiles: "COc1ccc2c(c1)N(C(=O)CSc1ncc(C#N)c(N)n1)c1ccccc1S2"
  Papp at 120 min, 100 µg/ml / ×10⁻⁶ cm/s: 3.08
- Item smiles: "Nn1c(SCC(=O)N2c3ccccc3Sc3ccc(C(F)(F)F)cc32)nnc1-c1ccncc1"
  Papp at 120 min, 100 µg/ml / ×10⁻⁶ cm/s: 1.05
- Item smiles: "O=C(CSc1nnc(-c2ccncc2)o1)N1c2ccccc2Sc2ccccc21"
  Papp at 120 min, 100 µg/ml / ×10⁻⁶ cm/s: 3.22
- Item smiles: "CCOC(=O)c1cnc(SCCCN2c3ccccc3Sc3ccc(C(F)(F)F)cc32)nc1N"
  Papp at 120 min, 100 µg/ml / ×10⁻⁶ cm/s: 2.84
- Item smiles: "N#Cc1cnc(SCC(=O)N2c3ccccc3Sc3ccc(C(F)(F)F)cc32)nc1N"
  Papp at 120 min, 100 µg/ml / ×10⁻⁶ cm/s: 2.78

---

- Protocol summary: PAMPA-BBB in vitro permeability assay
- Format: in vitro ADME, porcine
- Particulars: pig; PAMPA-BBB, porcine brain lipid, PBS/ethanol (70:30), 120 min, 25 °C; mean ± SEM of three experiments; read-out: Pe

- Compound: "Nn1c(SCC(=O)N2c3ccccc3Sc3ccc(Cl)cc32)nnc1-c1ccncc1 [Compound 34]"
  Unit info: "×10⁻⁶ cm/s"
  Papp at 120 min, 100 µg/ml: 2.09
- Compound: "N#Cc1cnc(SCCCN2c3ccccc3Sc3ccc(C(F)(F)F)cc32)nc1N [Compound 42]"
  Unit info: "×10⁻⁶ cm/s"
  Papp at 120 min, 100 µg/ml: 2.6
- Compound: "CCOC(=O)c1cnc(SCCCN2c3ccccc3Sc3ccc(Cl)cc32)nc1N [Compound 47]"
  Unit info: "×10⁻⁶ cm/s"
  Papp at 120 min, 100 µg/ml: 3.28
- Compound: "CCOC(=O)c1cnc(SCC(=O)N2c3ccccc3Sc3ccc(OC)cc32)nc1N [Compound 27]"
  Unit info: "×10⁻⁶ cm/s"
  Papp at 120 min, 100 µg/ml: 2.8
- Compound: "N#Cc1cnc(SCC(=O)N2c3ccccc3Sc3ccc(Cl)cc32)nc1N [Compound 22]"
  Unit info: "×10⁻⁶ cm/s"
  Papp at 120 min, 100 µg/ml: 2.28
- Compound: "CCOC(=O)c1cnc(SCC(=O)N2c3ccccc3Sc3ccc(Cl)cc32)nc1N [Compound 26]"
  Unit info: "×10⁻⁶ cm/s"
  Papp at 120 min, 100 µg/ml: 3.66
